Molecular target: glutathione-S-transferase (GST) tagged LXRalpha LBD (ligand binding domain) (Homo sapiens)
Construct: purchased Invitrogen pv4655
Sequence (Q13133 209-447 limits assumed): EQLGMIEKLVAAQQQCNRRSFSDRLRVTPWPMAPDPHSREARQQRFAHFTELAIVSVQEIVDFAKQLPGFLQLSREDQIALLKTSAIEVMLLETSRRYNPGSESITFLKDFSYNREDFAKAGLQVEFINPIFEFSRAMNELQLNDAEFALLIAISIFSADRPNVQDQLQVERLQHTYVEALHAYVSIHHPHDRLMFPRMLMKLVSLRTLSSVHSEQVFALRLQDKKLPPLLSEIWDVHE
Test: LanthaScreen TR-FRET Liver X Receptor Coactivator Assay, LXR alpha-LBD
Type: biochemical
Details: efficacy in relation to reference dual agonist T1317; read-out: LXR alpha activity at max dose (%) (Emax)
Metric: Emax (%)

Known Emax results, listed for orientation:
* CN(CC#N)C(=O)c1ccc(-c2cnc(N3CCN(C(=O)OC(C)(C)C)CC3)c(C#N)c2)cc1Cl [Example 5-8] | 58
* CC(C)C(O)(C(=O)N1CCN(c2ccc(-c3ccc(C(=O)N(C)C)c(Cl)c3)cc2)CC1)C(F)(F)F (stereo not shown) [Example 4-18] | 20
* CCCC(O)(C(=O)N1CCN(c2ncc(-c3ccc(C(=O)N(C)C)c(Cl)c3)cc2C#N)CC1)C(F)(F)F (stereo not shown) [Example 2-25] | 53
* CN(C)C(=O)c1ccc(-c2cnc(N3CCN(C(=O)[C@@](C)(O)C(F)(F)F)CC3)c(C#N)c2)cc1Cl [Example 2-15] | 58
* CN(CCn1cncn1)C(=O)c1ccc(-c2cnc(N3CCN(C(=O)OC(C)(C)C)CC3)c(C#N)c2)cc1Cl [Example 5-24] | 52

[a] CN(C)C(=O)c1ccc(-c2cnc(N3CCN(C(=O)C(C)(C)c4ccccc4)CC3)c(C#N)c2)cc1Cl [Example 2-18]
[b] CN(C)C(=O)c1ccc(-c2ccc(N3CCN(C(=O)c4ccccc4Cl)CC3)cc2)cc1Cl [Example 4-15]
Q. So which one has the bigger Emax here, a or b ? Use the label to indicate which entry you chose.
A. a
